Test system: RBL-2H3
Assay: Cytotoxicity against rat RBL-2H3 cells assessed as reduction cell viability at 100 uM after 24 hrs by WST assay
Assay type: toxicity, cell-based
Conditions: rbl-2h3, 24 h
quantityMeasured: Activity

{"compound": "CCCCC(=O)O[C@]1(C(=O)COC(=O)CN=C=S)[C@@H](C)C[C@H]2[C@@H]3CCC4=CC(=O)C=C[C@]4(C)[C@@]3(F)[C@@H](O)C[C@@]21C", "Activity": "Toxic"}
{"compound": "C[C@]12C=CC(=O)C=C1CC[C@@H]1[C@@H]2[C@@H](O)C[C@@]2(C)[C@H]1C[C@H]1O[C@@H](C3CCCCC3)O[C@]12C(=O)COC(=O)CN=C=S", "Activity": "Non-Toxic"}
{"compound": "CCCC1O[C@@H]2C[C@H]3[C@@H]4CCC5=CC(=O)C=C[C@]5(C)[C@H]4[C@@H](O)C[C@]3(C)[C@]2(C(=O)COC(=O)CN=C=S)O1 (stereo not given in full)", "Activity": "Non-Toxic"}
{"compound": "C[C@@H]1C[C@H]2[C@@H]3CCC4=CC(=O)C=C[C@]4(C)[C@@]3(F)[C@@H](O)C[C@]2(C)[C@@]1(O)C(=O)COC(=O)CN=C=S", "Activity": "Non-Toxic"}

For the next question, use this compound.
(Q) Entry C[C@]12C=CC(=O)C=C1CC[C@@H]1[C@@H]2C(=O)C[C@@]2(C)[C@H]1CC[C@]2(O)C(=O)COC(=O)CN=C=S needs its Activity filled in; supply it.
(A) Non-Toxic
